Tested on: Mus musculus
Test: Biodistribution was studied by injecting intravenously into C57B1/6 mice bearing subcutaneously transplanted B16 liver after 1 hr.
Assay type: ADME, organism-based
Details: in vivo, iv
READOUT: ID/g (%)

CCN(CC)CCNC(=O)c1cc(I)c(NC(C)=O)cc1OC = 8.03

P = CCN(CC)CCNC(=O)c1cc(I)c(N)cc1OC
Q = CCN(CC)CCNC(=O)c1cc(I)ccc1OC
Lookup: // max by ID/g over [ P , Q ] Mark your selection by writing its label.
Found: P

P = CCN(CC)CCNC(=O)c1cc(Br)c(N)c(I)c1OC
Q = CCN(CC)CCNC(=O)c1cc(OC)ccc1I
R = CCN(CC)CCNC(=O)c1ccc(OC)c(I)c1
Lookup: # desc sort on ID/g across 3 compounds Would you mind listing the labels in the order requested?
Found: P, R, Q
(P: 11.32%, R: 2.62%, Q: 1.23%)

---

System: Mus musculus
Assay: Biodistribution was studied by injecting intravenously into C57B1/6 mice bearing subcutaneously transplanted B16 kidney after 6 hr.
Assay type: ADME, organism-based
Conditions: in vivo, iv
READOUT: ID/g (%)

# count of solved cases: 3
CCN(CC)CCNC(=O)c1ccc(OC)c(I)c1 = 0.17
CCN(CC)CCNC(=O)c1cc(Br)c(N)c(I)c1OC = 2.08
CCN(CC)CCNC(=O)c1ccc(NC(C)=O)c(I)c1 = 1.22

1 = CCN(CC)CCNC(=O)c1cc(I)c(NC(C)=O)cc1OC
2 = CCN(CC)CCNC(=O)c1cc(OC)ccc1I
3 = CCN(CC)CCNC(=O)c1cc(I)c(N)cc1OC
4 = CCN(CC)CCNC(=O)c1cc(I)ccc1OC
Lookup: # desc sort on ID/g across 4 compounds Would you mind listing the labels in the order requested?
Found: 3, 1, 4, 2
(3: 3.95%, 1: 1.97%, 4: 0.41%, 2: 0.17%)

---

Test system: Mus musculus
Assay: Biodistribution was studied by injecting intravenously into C57B1/6 mice bearing subcutaneously transplanted B16 kidney after 1 hr.
Format: ADME, organism-based
Conditions: in vivo, iv
READOUT: ID/g (%)

# count of solved cases: 3
CCN(CC)CCNC(=O)c1cc(OC)ccc1I = 1.81
CCN(CC)CCNC(=O)c1ccc(NC(C)=O)c(I)c1 = 6.46
CCN(CC)CCNC(=O)c1cc(I)c(NC(C)=O)cc1OC = 5.09

I = CCN(CC)CCNC(=O)c1cc(Br)c(N)c(I)c1OC
II = CCN(CC)CCNC(=O)c1cc(I)c(N)cc1OC
III = CCN(CC)CCNC(=O)c1cc(I)ccc1OC
IV = CCN(CC)CCNC(=O)c1ccc(OC)c(I)c1
Lookup: Write the entries in order, lowest recorded ID/g first. Would you mind listing the labels in the order requested?
Found: IV, III, I, II
(IV: 0.93%, III: 1.71%, I: 4.53%, II: 6.89%)

---

Test system: Mus musculus
Test: Biodistribution was studied by injecting intravenously into C57B1/6 mice bearing subcutaneously transplanted B16 heart after 6 hr.
Format: ADME, organism-based
Conditions: in vivo, iv
READOUT: ID/g (%)

# count of solved cases: 3
CCN(CC)CCNC(=O)c1cc(I)c(NC(C)=O)cc1OC = 1.05
CCN(CC)CCNC(=O)c1cc(I)c(N)cc1OC = 0.45
CCN(CC)CCNC(=O)c1cc(I)ccc1OC = 0.09

1 = CCN(CC)CCNC(=O)c1cc(OC)ccc1I
2 = CCN(CC)CCNC(=O)c1ccc(OC)c(I)c1
3 = CCN(CC)CCNC(=O)c1cc(Br)c(N)c(I)c1OC
4 = CCN(CC)CCNC(=O)c1ccc(NC(C)=O)c(I)c1
Lookup: # desc sort on ID/g across 4 molecules Would you mind listing the labels in the order requested?
Found: 3, 4, 1, 2
(3: 0.94%, 4: 0.58%, 1: 0.13%, 2: 0.05%)
